Test system: Vero E6 infected with SARS-CoV-2
ASSAY TEXT: inhibition of SARS-CoV-2 cytopathic effect; higher = more antiviral protection, active = above 15
CONDITION SUMMARY: 10000 nM; 48 h
Reported inhibition of SARS-CoV-2 cytopathic effect is given for each of the following compounds.
Value expressed in %; do not type the unit.

CNS(=O)(=O)Nc1nccc(Cc2c(C)c3ccc(Oc4ncccn4)cc3oc2=O)c1F: -15.7
C[C@@H](CN1CC(=O)NC(=O)C1)N1CC(=O)NC(=O)C1: -1.81
N=C(N)S/C=C\C(=O)O: -0.56
CCCCc1ncc(/C=C(\Cc2cccs2)C(=O)O)n1Cc1ccc(C(=O)O)cc1: 2.22
Cc1cc([C@@H](C)Nc2ccccc2C(=O)O)c2nc(N3CCOCC3)cc(=O)n2c1: -2.98
OC(CCCN1CCCCC1)(c1ccccc1)c1ccccc1: -2.8
CCC[C@H](Nc1nc(-c2ccc(NC(=O)NCC)c(OC)c2)ncc1C)c1cccnc1: -2.7
O=C(NC(=O)c1c(F)cccc1F)Nc1cc(Cl)c(OC(F)(F)C(F)C(F)(F)F)cc1Cl (stereo not given): 1.2
Cc1cc(C(=CNc2ccc(Cl)cc2)C(=O)Nc2ccc(Cl)cc2)on1: 0.28
COc1ccc(Cn2ccc3ccc(C(=O)NO)cc32)cc1: -2.47

Quick one: give measured inhibition of SARS-CoV-2 cytopathic effect for `C[C@H]1C[C@@H]2[C@H]([C@@H](O)C[C@@]3(C)[C@H]2CC[C@]3(O)C(=O)CO)[C@@]2(C)C=CC(=O)C=C12`
0.36

Quick one: give measured inhibition of SARS-CoV-2 cytopathic effect for `Nc1ccc2ncnc(NCCc3ccc(Oc4ccccc4)cc3)c2c1`
-4.62

Quick one: give measured inhibition of SARS-CoV-2 cytopathic effect for `CC1(C)S[C@@H]2[C@H](N3C(=O)[C@@H](c4ccccc4)NC3(C)C)C(=O)N2[C@H]1C(=O)O`
2.77

Quick one: give measured inhibition of SARS-CoV-2 cytopathic effect for NCc1c[nH]c(=S)n1[C@H]1CCc2c(F)cc(F)cc2C1 [nepicastat]
-0.04

* * *

System: Vero E6 infected with SARS-CoV-2
ASSAY TEXT: inhibition of SARS-CoV-2 cytopathic effect; higher = more antiviral protection, active = above 15
CONDITION SUMMARY: 100 nM; 48 h
Reported inhibition of SARS-CoV-2 cytopathic effect is given for each of the following compounds.
Value expressed in %; do not type the unit.

CCOc1ccc(-c2nc(-c3cccc4c3CCC4NCCO)no2)cc1OCC (stereo unspecified): 1.13

Quick one: give measured inhibition of SARS-CoV-2 cytopathic effect for `O=C(O)C1=CCCNC1`
3.21

Quick one: give measured inhibition of SARS-CoV-2 cytopathic effect for `O=C1NC(=O)C(c2cnc3ccccn23)=C1c1cn2c3c(cc(F)cc13)CN(C(=O)N1CCCCC1)CC2`
14.4

Quick one: give measured inhibition of SARS-CoV-2 cytopathic effect for O=C(Nc1ccccc1)c1ccccc1O [salicylanilide]
-1.24

Quick one: give measured inhibition of SARS-CoV-2 cytopathic effect for NC(=O)C[S+]([O-])C(c1ccccc1)c1ccccc1 (stereo unspecified)
-0.185

Quick one: give measured inhibition of SARS-CoV-2 cytopathic effect for NS(=O)(=O)c1cc(C2(O)NC(=O)c3ccccc32)ccc1Cl (stereo unspecified)
4.69

Quick one: give measured inhibition of SARS-CoV-2 cytopathic effect for `CC(C)n1nccc1-c1ncccc1COc1cccc(O)c1C=O`
-0.23

Quick one: give measured inhibition of SARS-CoV-2 cytopathic effect for `NCCCNCCCCNCCCN`
-0.71

Quick one: give measured inhibition of SARS-CoV-2 cytopathic effect for CC(C(=O)O)c1ccc2c(c1)CC(=O)c1ccccc1S2 (stereo unspecified)
3.97

Quick one: give measured inhibition of SARS-CoV-2 cytopathic effect for Cc1cccc(C)c1NC(=O)C1CCCCN1C (stereo unspecified) [mepivacaine]
-2.27

Quick one: give measured inhibition of SARS-CoV-2 cytopathic effect for `C[C@@]1(F)[C@H](O)[C@@H](CO)O[C@H]1n1ccc(N)nc1=O`
-0.8

* * *

System: Vero E6 infected with SARS-CoV-2
ASSAY TEXT: morphology score (similarity to uninfected cells); higher = more like uninfected cells
CONDITION SUMMARY: 24 h
MEASURED ATTRIBUTE: morphology score
Could you keep your reply to the number by itself?

Give morphology score; test system Vero E6 infected with SARS-CoV-2; molecule CC(=O)N[C@H](Cc1ccc2ccccc2c1)C(=O)N[C@H](Cc1ccc(Cl)cc1)C(=O)N[C@H](Cc1cccnc1)C(=O)N[C@@H](CO)C(=O)N[C@@H](Cc1ccc(NC(=O)[C@@H]2CC(=O)NC(=O)N2)cc1)C(=O)N[C@H](Cc1ccc(NC(N)=O)cc1)C(=O)N[C@@H](CC(C)C)C(=O)N[C@@H](CCCCNC(C)C)C(=O)N1CCC[C@H]1C(=O)N[C@H](C)C(N)=O [degarelix] (10 µM)
-0.277

Give morphology score; test system Vero E6 infected with SARS-CoV-2; molecule CC1(C)O[C@@H]2C[C@H]3[C@@H]4CCC5=CC(=O)CC[C@]5(C)[C@@]4(F)[C@@H](O)C[C@]3(C)[C@]2(C(=O)CCl)O1 [halcinonide] (10 µM)
0.157

Give morphology score; test system Vero E6 infected with SARS-CoV-2; molecule C[C@]12CC[C@H](O)C[C@H]1CC[C@@H]1[C@@H]2C[C@@H](O)[C@]2(C)[C@@H](C3=CC(=O)OC3)CC[C@]12O [digoxigenin] (0.833333 µM)
-0.000579

Give morphology score; test system Vero E6 infected with SARS-CoV-2; molecule CCOC(=O)c1ccc(-c2ccc(OC(=O)N(C)Cc3cccc(-c4ccncc4)c3)cc2)cc1 (10 µM)
0.0201

Give morphology score; test system Vero E6 infected with SARS-CoV-2; molecule CCN(CC)CCOc1ccccc1C(=O)CCc1ccccc1 [etafenone] (10 µM)
0.151

Give morphology score; test system Vero E6 infected with SARS-CoV-2; molecule C[C@](O)(COc1ccc(C#N)cc1)C(=O)Nc1ccc(C#N)c(C(F)(F)F)c1 [ostarine] (10 µM)
0.0725

Give morphology score; test system Vero E6 infected with SARS-CoV-2; molecule FCc1ccc(OCCOc2ccc(Cl)cc2Cl)c(Cl)n1 (10 µM)
-0.0669

Give morphology score; test system Vero E6 infected with SARS-CoV-2; molecule Nc1ccc2ncnc(NCCc3ccc(Oc4ccccc4)cc3)c2c1 (10 µM)
-0.17

Give morphology score; test system Vero E6 infected with SARS-CoV-2; molecule Cn1ncc(Cl)c1-c1cc(C(=O)N[C@H](CN)Cc2cccc(F)c2)sc1Cl (10 µM)
0.197

Give morphology score; test system Vero E6 infected with SARS-CoV-2; molecule Cn1c(-c2ccccc2)nnc1S(C)(=O)=O (10 µM)
0.268

Give morphology score; test system Vero E6 infected with SARS-CoV-2; molecule O=C(O)CCCc1ccc(N(CCCl)CCCl)cc1 [chlorambucil] (10 µM)
0.143

Give morphology score; test system Vero E6 infected with SARS-CoV-2; molecule Nc1ncnc2c1ncn2CCOCP(=O)(O)O [adefovir] (10 µM)
-0.0616

Give morphology score; test system Vero E6 infected with SARS-CoV-2; molecule CCN1CCN(C(=O)N[C@@H](C(=O)N[C@@H]2C(=O)N3C(C(=O)O)=C(CSc4nnnn4C)CS[C@H]23)c2ccc(O)cc2)C(=O)C1=O [cefoperazone] (10 µM)
0.206

Give morphology score; test system Vero E6 infected with SARS-CoV-2; molecule COc1cc(S(C)(=O)=O)ccc1Nc1nc2ccc(-c3ccc(NC(=O)[C@H](C)c4ccc(F)cc4)cc3)cn2n1 (10 µM)
-0.122

* * *

Tested on: Vero E6 infected with SARS-CoV-2
ASSAY TEXT: morphology score (similarity to uninfected cells); higher = more like uninfected cells
CONDITION SUMMARY: 24 h
Think of 0.01 as a floor: if morphology score stands on it or above, it is y; beneath it, n.

Take a look at these entries with their results.
C[C@H](c1ccc(F)cc1CCCC(=O)O)N(c1cc(F)ccc1F)S(=O)(=O)c1ccc(Cl)cc1 (10 µM): y
N[C@@H](CCNCc1ccc(Cl)cc1)C(=O)N1CCCCC1 (10 µM): n
CCOP(=S)(OCC)Oc1ccc2c(C)c(Cl)c(=O)oc2c1 [coumophos] (10 µM): n

Now take the following compound into account.
Is it the case that CS(=O)(=O)N1CCc2c(-c3cnc(N)nc3)nc(N3CCOCC3)nc21 (0.833333 µM) has morphology score reaching or exceeding 0.01?
y

* * *

Test system: Vero E6 infected with SARS-CoV-2
ASSAY TEXT: morphology score (similarity to uninfected cells); higher = more like uninfected cells
CONDITION SUMMARY: 24 h
Reported morphology score is given for each of the following compounds.
Could you keep your reply to the number by itself?

Nc1ncnc2c1c(-c1ccc(Oc3ccccc3)cc1)nn2C1CCCC1 (10 µM): -0.00746
NC[C@@H]1CC[C@@H](N)[C@@H](O[C@H]2[C@H](O)[C@@H](O[C@H]3O[C@H](CO)[C@@H](O)[C@H](N)[C@H]3O)[C@H](N)C[C@@H]2N)O1 [dibekacin] (10 µM): 0.0218
CCCCCNCC(N)=O [milacemide] (10 µM): 0.0276

Here's the next entry for you.
Quick one: give measured morphology score for C[C@H](N)C(=O)O [L-alanine] (10 µM)
-0.118
